Form field: melting point (one value per entry).

Here is how some compounds turned out for melting point.
> print(dat)
                                   compound   quantityname         result
1  CCCn1cc(C(=O)O)c(=O)c2cnc(N3CCN(C)CC3)nc21  melting point  254 to 257 °C
2  COc1cc(OC)nc(OC(C(=O)O)C2CCc3ccccc32)n1 (stereo unspecified)  melting point  113 to 117 °C
3  CNC(=O)ON=C1N=C(C)C(C)(CC(C)C)S1 (stereo unspecified)  melting point   99 to 101 °C
4  Cc1ccc(Sc2c(Sc3ccc(C)cc3)c(Sc3ccc(C)cc3)c(C(O)=NCCO)c(C(=O)O)c2Sc2ccc(C)cc2)cc1  melting point  161 to 162 °C
5              Cc1c(Cl)ccc(S(=O)(=O)Cl)c1Cl  melting point          75 °C

Respond only with melting point recorded for COc1cc(N)c(Cl)cc1C(=O)NCC1CCN(CCCCC(=O)c2ccc(O)cc2)CC1 154 to 156 °C

Respond only with melting point recorded for COC(=O)c1ccc(CNc2cc(C(=O)Nc3ccccc3)ccc2OC)cc1 170 to 172 °C

Respond only with melting point recorded for CC1(C)Cc2cccc(C(=O)O)c2S1 179 to 182 °C

Respond only with melting point recorded for COc1cc2cc3c(=O)[nH]cnc3cc2cc1OCCN1CCOCC1 230 to 232 °C

Respond only with melting point recorded for Oc1ccc(-c2ccc(C=C(Br)Br)s2)cc1 99 to 101 °C

Respond only with melting point recorded for O=C(Nc1ccc(Br)cc1)N1COC2(c3ccc(F)cc3)Cc3cc(F)ccc3C2=N1 (stereo unspecified) 208 to 209 °C

Respond only with melting point recorded for COc1cccc(OC)c1C(=O)Nc1nnc(-c2ccc(O)cc2)s1 > 260 °C

Respond only with melting point recorded for O=C1NC(=O)c2c1c(-c1ccccc1)cc1c2c2cc(O)ccc2n1CCCN1CCNCC1 178 to 183 °C

Respond only with melting point recorded for CCCCc1nc(C(O)C(C)(C)C)c(C(N)=O)n1Cc1ccc(-c2ccccc2C(=O)O)cc1 (stereo unspecified) 150 to 154 °C

Respond only with melting point recorded for OCc1cc(N2CCCC2)ncn1 136 to 139 °C

----------
quantityName: melting point

Here is how some compounds turned out for melting point.
> print(dat)
                       smilesrepresentation         result
1  CCCNCc1cnc(-c2ncn3c2CN(C)C(=O)c2cc(F)ccc2-3)o1  134 to 136 °C
2  CC(C)CCC(=O)N[C@@H]1N=C(c2ccccc2)c2ccccc2N(C)C1=O  123 to 125 °C
3  NS(=O)(=O)c1cc(C(=O)O)cc(NCc2ccccc2)c1Oc1ccc(OCc2ccccc2)cc1  249 to 251 °C
4  CCOC(=O)n1c(SC(F)(F)F)cc(-c2ccc(F)cc2)c1-c1ccc(F)cc1  54 to 54.5 °C

Then there is this compound:
Respond only with melting point recorded for CCCCOCCOc1ccc(-c2ccc3c(c2)C=C(C(=O)OC)CCN3c2ccc(S(=O)(=O)N(C)C)cc2)cc1 150 to 153 °C

----------
Form field: melting point (one value per entry).

> print(dat)
                                   molecule         result
1  COCCc1nc2c(N)nc3ccc(CCC(=O)N4CCOCC4)cc3c2n1CCCN1CCCC1=O  168 to 170 °C

Respond only with melting point recorded for O=C(O)C(=O)c1ccc(OCCOc2cccc3ccccc23)cc1 124 to 125 °C

Respond only with melting point recorded for CC(C)(C)OC(=O)NCCc1c[nH]c2ccc(Oc3ccccc3)c(Cl)c12 163 to 166 °C

Respond only with melting point recorded for N[C@@]1(C(=O)O)C[C@H](NC(=O)Nc2cccc(Cl)c2)[C@H]2[C@H](C(=O)O)[C@H]21 (relative stereo) > 250 °C

Respond only with melting point recorded for CSc1nc2cc(Cl)c(S(N)(=O)=O)cc2[nH]1 253 to 254 °C

----------
Form field: melting point (one value per entry).

> print(dat)
                                   compound   quantityname         result
1          c1ccc(-c2nc3n(n2)Cc2ccccc2-3)cc1  melting point  156 to 158 °C
2  CCCCCCCCCCCCCCCCCCOc1cccc(C(=O)C(=O)O)c1  melting point    77 to 79 °C
3  CN1CCN2CCCOC2(c2ccccc2)c2cc(Cl)ccc21 (stereo unspecified)  melting point  142 to 144 °C
4  Cc1nc(N2CCN(Cc3ccccc3)S2(=O)=O)sc1C(=O)NCc1cccnc1  melting point  140 to 142 °C
5  O[C@H](COc1cccc2[nH]ccc12)CN1CC=C(c2c[nH]c3c(Cl)c(Cl)ccc23)CC1  melting point  140 to 145 °C

Respond only with melting point recorded for Fc1cccc(Nc2nc(Cl)nc(Cl)n2)c1 143 °C

----------
Form field: melting point (one value per entry).

> print(dat)
                                   compound   quantityname          result
1  Cc1nc(-c2cccnc2)sc1-c1ccnc(Nc2ccc(N3CCOCC3)cc2)n1  melting point   240 to 242 °C
2         O=Cc1ccc(OCc2ccccc2)c(OC2CCCC2)c1  melting point     55 to 56 °C
3  CN(c1cccnc1Cl)S(=O)(=O)c1ccccc1[N+](=O)[O-]  melting point   116 to 118 °C
4    O=C(O)CCCn1sc2ccc([N+](=O)[O-])cc2c1=O  melting point   183 to 186 °C
5  CC(=O)C(=Cc1cc(O)c(O)c([N+](=O)[O-])c1)C(C)=O  melting point   175 to 178 °C
6  CC(=O)OCCn1nc(-c2cc(C(C)(C)C)c(O)c(C(C)(C)C)c2)c2ccc(C(C)C)nc21  melting point   121 to 122 °C
7  CS(=O)(=O)c1ccc(-n2nc(CNC(=O)Nc3ccccc3)cc2-c2ccccc2)cc1  melting point  95.7 to 104 °C
8         Cn1nc2c(N)nc3ccccc3c2c1CCc1ccccc1  melting point   210 to 212 °C

Then there is this compound:
Respond only with melting point recorded for O=C(NCCOc1ccccn1)C1Cc2ccccc2N1S(=O)(=O)c1ccc(-c2cccc(C(F)(F)F)c2)cc1 (centres undefined) 85 °C

----------
Form field: melting point (one value per entry).

> print(dat)
                                   compound         result
1  CC(C)(C)c1ccc(Cn2cc(C(=O)C(=O)O)c3cc(-c4ccc(C(C)(C)C)cc4)ccc32)cc1  111 to 112 °C
2  COc1ccc([C@H]2SC=C(c3ccccc3)N(CCN(C)C)C(=O)[C@H]2O)cc1  110 to 112 °C
3  COc1ccc(-c2cc3cc(F)c(F)cc3[nH]2)cc1NC(=S)Nc1cc(Cl)cc(Cl)c1  203 to 205 °C
4  CCn1cc(C2(c3cccc(-c4cncc(F)c4)c3)N=C(N)N(C)C2=O)cn1 (stereo not given)  216 to 220 °C

Then there is this compound:
Respond only with melting point recorded for CC(C)(C)NS(=O)(=O)Cc1cc(Br)c(NC(=O)C(F)(F)F)c(Br)c1 166 to 167 °C

----------
Form field: melting point (one value per entry).

Here is how some molecules turned out for melting point.
> print(dat)
                                   molecule   quantityname         result
1           COc1cccc(-c2cc3ccc(C#N)cc3o2)c1  melting point  148 to 150 °C
2           Cc1ccc([N+](=O)[O-])c2c1CCCC2=O  melting point  104 to 107 °C
3                        N#CCCN(C=O)CC(=O)O  melting point  112 to 114 °C
4  COc1ccc(OCc2ccc3ccccc3n2)cc1C1(c2ccccc2)CC2CCC1C2 (centres undefined)  melting point  138 to 139 °C
5  Cc1ccc(N2C(=O)C(O)=C(C(=O)c3ccc(-c4ccccc4)cc3)C2c2ccc(OC(F)(F)F)cc2)nn1 (centres undefined)  melting point  226 to 232 °C
6  CCCCCCCNC(=O)N(C)c1cccc(-c2ccc(CCC(=O)O)c(F)c2)c1  melting point    92 to 93 °C
7           Nc1ccccc1CSc1ncc(C(F)(F)F)cc1Cl  melting point   98 to 102 °C
8  CC(C)(C)C(=O)Oc1ccc(C(=O)NNC(=O)c2occ(-c3ccccc3)c2-c2ccccc2)cc1C#N  melting point  152 to 154 °C

Respond only with melting point recorded for COc1ccc(C2=NN(c3cnc4ccccc4n3)C(=O)[C@H]3CC=CC[C@@H]23)cc1Cl (relative stereo) 172 to 174 °C

----------
Form field: melting point (one value per entry).

Here is how some compounds turned out for melting point.
> print(dat)
                       smilesrepresentation   quantityname         result
1  O=C(O)c1ccc(OCCCCc2cc(-c3ccc(C(F)(F)F)cc3)no2)cc1  melting point  170 to 171 °C
2  O=C(NC1CCN(CCc2cccc3ccccc23)CC1)c1ccccc1  melting point  160 to 162 °C
3  Cc1cc(OC(F)F)ccc1NC(=O)c1cccc(N)c1C(=O)NC(C)C  melting point  148 to 149 °C
4  C=CCOC(=O)C1=C2CCSC[C@@H]2[C@@H]2/C(=C\C)C(=O)N12  melting point  195 to 225 °C
5               O=C(CC=C(Cl)Cl)Oc1ccc(F)cc1  melting point    47 to 50 °C

Respond only with melting point recorded for CCOC(=O)COCc1nnc(S)n1C 86 to 88 °C
